Entry source: paper PMC7968997

Molecular target: T1, RRM1 analog D53A (Homo sapiens, UniProt Q8IUH3 23-202, D53A;F124A;Y165A)
T1 sequence: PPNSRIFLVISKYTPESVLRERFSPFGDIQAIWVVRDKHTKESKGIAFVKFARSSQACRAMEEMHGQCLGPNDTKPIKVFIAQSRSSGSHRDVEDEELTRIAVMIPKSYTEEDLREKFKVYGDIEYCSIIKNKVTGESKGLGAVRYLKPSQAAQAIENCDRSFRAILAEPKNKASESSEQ
Assay: fluorescence polarization
RECORDED_METRIC: pKd
Value format note: pKd is -log10 of concentration (mol/L); just state the number.

What measured pKd goes with GGACGG (ssRNA) [GGACGG RNA] ?
5.70
